Data origin: ChEMBL document CHEMBL5537137

# log10(EC50) per record follows
# Tested on: Human coronavirus OC43
# Assay Comment: microbe, parasite or virus in culture
# Recorded Conditions: Betacoronavirus 1, VR-1558, NCI-H460, 72 h
# Description: Antiviral activity against HCoV-OC43 VR-1558 infected in human NCI-H460 cells assessed as inhibition of viral growth incubated for 72 hrs by CCK-8 assay
Note: values are log10 of EC50 expressed in µM.

// solved cases for log10(EC50) follow
[[record]]
molecule = "CCOc1ccc(C(=O)Nc2ccc(OC3CC(N(C)C)C3)c(C(F)(F)F)c2)cc1[N+](=O)[O-] (configuration not stated)"
measured_metric = "log10(EC50)"
obs_value = 0.49

[[record]]
molecule = "COc1ccc(C(=O)Nc2ccc(CN3CCN(C)CC3)c(C(F)(F)F)c2)cc1[N+](=O)[O-]"
measured_metric = "log10(EC50)"
obs_value = 0.45

[[record]]
molecule = "CN(C)C1CN(Cc2ccc(NC(=O)c3ccc(OCCCCl)c([N+](=O)[O-])c3)cc2C(F)(F)F)C1"
measured_metric = "log10(EC50)"
obs_value = 0.94

[[record]]
molecule = "COc1ccc(C(=O)Nc2ccc(CN3CC(N(C)C)C3)c(C(F)(F)F)c2)cc1[N+](=O)[O-]"
measured_metric = "log10(EC50)"
obs_value = 1.08


Field log10(EC50) (entry CC1CC(C)CN(CCCNC(=O)C2CN(Cc3ccc(NC(=O)c4ccc(OCCCCl)c([N+](=O)[O-])c4)cc3C(F)(F)F)C2)C1 (configuration not stated) ) reads 0.50

Field log10(EC50) (entry CN1CCN(Cc2ccc(NC(=O)c3ccc(OCCCCl)c(S(=O)(=O)O)c3)cc2C(F)(F)F)CC1 ) reads 1.57

Field log10(EC50) (entry CN(C)C1CN(Cc2ccc(NC(=O)c3ccc(OCC(F)F)c([N+](=O)[O-])c3)cc2C(F)(F)F)C1 ) reads 0.65

###

# Assay Comment: Cytotoxicity against human NCI-H460 cells incubated for 72 hrs by CCK-8 assay
# CC50 at 72 h per record follows

[[record]]
smiles_text = "O=C(Nc1ccc(CN2CC(C(=O)O)C2)c(C(F)(F)F)c1)c1ccc(OCCCCl)c([N+](=O)[O-])c1"
measured_metric = "CC50 at 72 h"
obs_value = "> 200 µM"

[[record]]
smiles_text = "COc1ccc(C(=O)Nc2ccc(CN3CC(N(C)C)C3)c(C(F)(F)F)c2)cc1[N+](=O)[O-]"
measured_metric = "CC50 at 72 h"
obs_value = "> 200 µM"


# ---- query molecule ----
Field CC50 at 72 h (entry CN1CCN(Cc2ccc(NC(=O)c3ccc(OCCCCl)c(S(=O)(=O)O)c3)cc2C(F)(F)F)CC1 ) reads > 200 µM
